# assay protocol: Pharmacokinetics and bioavailability in dogs, plasma determined by LC-MS
# Assay type: in vivo, dog
# run conditions: dog, plasma, Time 0.5 h; individual dogs, one table per dog; read-out: Concentration in dog blood C
endpoint name: concentration at 0.5 h (ng/mL)
Please give a number only; it is taken to be in ng/mL.

Query: What concentration at 0.5 h value was documented for this molecule, NC(=O)CN1CC(O)CC1=O (racemic) ?
Reply: 28200

----------
# assay protocol: Pharmacokinetics and bioavailability in dogs, plasma determined by LC-MS
# Type: in vivo, dog
# run conditions: dog, plasma, Time 4 h; individual dogs, one table per dog; read-out: Concentration in dog blood C
endpoint name: concentration at 4 h (ng/mL)
Please give a number only; it is taken to be in ng/mL.

Query: What concentration at 4 h value was documented for this compound, NC(=O)CN1C[C@H](O)CC1=O ?
Reply: 18400

The measured values listed here are drawn from patent US20180147183A1.
